assay.remarks: Pharmacokinetics and bioavailability test in rats (Example 60)
Type: in vivo
measurement.conditions: Sprague-Dawley, rat, plasma; SD rats, PO 10 mg/kg
Below, each entry is listed alongside its reported Tmax.
Remember to quote the unit after the number.

[[record]]
molecule = "O=C1CCC(N2C(=O)c3ccc(N4CCC(N5CCN(c6ccc(N(C(=O)NCc7ccccc7F)[C@H]7CC[C@H](Nc8ncc9ccccc9n8)CC7)cc6)CC5)CC4)cc3C2=O)C(=O)N1 (stereo partly shown)"
property = "Tmax"
value = "6.7 h"

[[record]]
molecule = "O=C1CCC(N2C(=O)c3ccc(N4CCC(N5CCN(c6ccc(N(C(=O)NCc7ccccc7)[C@H]7CC[C@H](Nc8ncc9ccccc9n8)CC7)cc6)CC5)CC4)cc3C2=O)C(=O)N1 (stereo partly shown)"
property = "Tmax"
value = "6 h"

[[record]]
molecule = "O=C1CCC(N2C(=O)c3ccc(N4CCC(CN5CCN(c6ccc(N(C(=O)NCc7ccccc7)[C@H]7CC[C@H](Nc8ncc9ccccc9n8)CC7)cc6)CC5)CC4)cc3C2=O)C(=O)N1 (stereo partly shown)"
property = "Tmax"
value = "6.7 h"


// below: Tmax requested for another molecule
Q. Need Tmax of O=C1CCC(N2C(=O)c3ccc(N4CCC(N5CCN(c6ccc(N(C(=O)NCc7ccccc7)[C@H]7CC[C@H](Nc8ncc9ccccc9n8)CC7)cn6)CC5)CC4)cc3C2=O)C(=O)N1 (stereo partly shown) , thanks.
A. 4.7 h

###

assay.remarks: Pharmacokinetics and bioavailability test in rats (Example 57)
Format: in vivo
measurement.conditions: Sprague-Dawley, rat, plasma, iv; SD rats, i.v. 2.5 mg/kg; read-out: MRT(0-∞)
property: MRT inf (h)
Write the value in h as a bare number.

Q. Which value of MRT inf has been reported for N#Cc1ccc(N[C@H]2CC[C@H](N(C(=O)NCc3ccccc3)c3ccc(N4CCN(C5CCN(c6ccc7c(c6)C(=O)N(C6CCC(=O)NC6=O)C7=O)CC5)CC4)cc3)CC2)nc1 (stereo partly shown) in the records?
A. 2.44

###

assay.remarks: Pharmacokinetics and bioavailability test in rats (Example 60)
Format: in vivo
measurement.conditions: Sprague-Dawley, rat, plasma; SD rats, PO 10 mg/kg
property: Tmax (h)
Form entry: value (h) — number only.

[[record]]
compound = "O=C1CCC(N2C(=O)c3cc(F)c(N4CCC(N5CCN(c6ccc(N(C(=O)NCc7ccccc7)[C@H]7CC[C@H](Nc8ncc9ccccc9n8)CC7)cc6)CC5)CC4)cc3C2=O)C(=O)N1 (stereo partly drawn)"
property = "Tmax"
unit_abbreviation = "h"
value = 6.67


Q. Which Tmax value is on record for O=C1CCC(N2C(=O)c3cc(F)c(N4CCC(N5CCN(c6ccc(N(C(=O)NCc7ccccc7)[C@H]7CC[C@H](Nc8ncc9ccccc9n8)CC7)cn6)CC5)CC4)cc3C2=O)C(=O)N1 (stereo partly drawn) ?
A. 6

Q. Then what about the compound O=C1CCC(N2C(=O)c3ccc(N4CCC(N5CCN(c6ccc(N(C(=O)NCc7ccccc7)[C@H]7CC[C@H](Nc8ncc9ccccc9n8)CC7)cc6F)CC5)CC4)cc3C2=O)C(=O)N1 (stereo partly drawn) ?
A. 7.33

###

assay.remarks: Pharmacokinetics and bioavailability test in rats (Example 60)
Type: in vivo
measurement.conditions: Sprague-Dawley, rat, plasma; SD rats, IV 2.5 mg/kg
property: Tmax (min)
State just the number; it will be interpreted in min.

Q. Entry O=C1CCC(N2C(=O)c3cc(F)c(N4CCC(N5CCN(c6ccc(N(C(=O)NCc7ccccc7)[C@H]7CC[C@H](Nc8ncc9ccccc9n8)CC7)cc6)CC5)CC4)cc3C2=O)C(=O)N1 (stereo partly drawn) [YJZ1201] : reported Tmax = ?
A. 4.8

Q. Record: O=C1CCC(N2C(=O)c3ccc(N4CCC(N5CCN(c6ccc(N(C(=O)NCc7ccccc7F)[C@H]7CC[C@H](Nc8ncc9ccccc9n8)CC7)cc6)CC5)CC4)cc3C2=O)C(=O)N1 (stereo partly drawn) [YJZ1203]
A. 4.8

Q. Same read-out for O=C1CCC(N2C(=O)c3ccc(N4CCC(CN5CCN(c6ccc(N(C(=O)NCc7ccccc7)[C@H]7CC[C@H](Nc8ncc9ccccc9n8)CC7)cc6)CC5)CC4)cc3C2=O)C(=O)N1 (stereo partly drawn) [YJZ1097] ?
A. 4.8
